# assayed system: lipoxygenase from rabbit reticulocytes (Oryctolagus cuniculus)
# Construct: The lipoxygenase from rabbit reticulocytes is obtained in electrophoretically and immunologically pure form; from tissue; host or cells: rabbit reticulocytes
# Sequence (P12530 1-663): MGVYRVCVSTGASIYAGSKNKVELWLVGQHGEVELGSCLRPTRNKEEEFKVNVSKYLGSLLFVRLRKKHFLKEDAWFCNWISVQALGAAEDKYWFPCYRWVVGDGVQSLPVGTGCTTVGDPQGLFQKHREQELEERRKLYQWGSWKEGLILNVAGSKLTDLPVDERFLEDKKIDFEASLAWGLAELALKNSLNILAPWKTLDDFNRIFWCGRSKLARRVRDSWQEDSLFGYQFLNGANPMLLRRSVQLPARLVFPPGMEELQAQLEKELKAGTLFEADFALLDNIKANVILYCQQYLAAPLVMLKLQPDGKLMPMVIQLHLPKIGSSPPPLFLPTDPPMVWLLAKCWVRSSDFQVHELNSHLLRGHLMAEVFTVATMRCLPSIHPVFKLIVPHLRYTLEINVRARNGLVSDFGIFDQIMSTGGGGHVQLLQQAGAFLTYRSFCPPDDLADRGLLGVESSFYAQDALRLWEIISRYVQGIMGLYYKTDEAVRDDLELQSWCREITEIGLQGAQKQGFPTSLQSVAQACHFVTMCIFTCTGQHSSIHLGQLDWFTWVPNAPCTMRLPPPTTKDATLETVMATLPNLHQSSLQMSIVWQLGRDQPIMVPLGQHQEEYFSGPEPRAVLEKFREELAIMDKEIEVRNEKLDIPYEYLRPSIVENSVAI
# assay details: Inhibition of the activity of lipoxygenase from rabbit reticulocytes (oxygen consumption, Clark electrode)
# Format: biochemical
# condition set: 25° C., pH 7.4, 0.53 mM linoleic acid, 15 min pre-incubation; read-out: I50
# Excerpt: The lipoxygenase from rabbit reticulocytes was obtained in electrophoretically and immunologically pure form according to a technique known from the literature (S. M. Rapoport et al. Methods in Enzymology 71, 430 (1981)). […] Through variation of the substance concentrations, the titration curves of the inhibition and therefrom the inhibition concentrations (I-value) of the compounds can be determined. […]
measured endpoint: IC50 (µM)
Answers are plain numbers, in µM.

O=C(NO)c1ccc2ccccc2c1O [1-hydroxy-2-naphthylhydroxamic acid]    47
CC(Oc1ccc2ccccc2c1)C(=O)NO (stereo not drawn)    40
O=C(COc1cccc2ccccc12)NO [2(1'-naphthoxy)-acethydroxamic acid]    25
CC(C)C(Oc1ccc2ccccc2c1)C(=O)NO (stereo not drawn)    27
NC1=NN(c2cccc(C(F)(F)F)c2)CC1 [BW 755 C, reference compound]    20

Field: IC50. Fill in for each record below.
1. CCCCCCCCC#CCC#CCC#CCCCC(=O)O [5,8,11-eicosatriicacid, reference compound]
2. O=C(CCCOc1ccc2ccccc2c1)NO [4(2'-naphthoxy)-n-butyl-hydroxamic acid, 4(2'-naphthoxy)-butylhydroxamic acid]
3. CCCCCCCCCC(Oc1ccc2ccccc2c1)C(=O)NO (stereo not drawn)
4. O=C(CCCCOc1ccc2ccccc2c1)NO [5(2'-naphthoxy)valerylhydroxamic acid, 5(2'-naphthoxy)-valerylhydroxamic acid]

Result:
1.3
4
1.5
3.5

---

# assayed system: lipoxygenase from rabbit reticulocytes (Oryctolagus cuniculus, UniProt P12530)
# Construct: The lipoxygenase from rabbit reticulocytes is obtained in electrophoretically and immunologically pure form; from tissue; host or cells: rabbit reticulocytes
# assay details: Inhibition of the activity of lipoxygenase from rabbit reticulocytes (oxygen consumption, Clark electrode)
# Assay type: biochemical
# condition set: 25° C., pH 7.4, 0.53 mM linoleic acid, 15 min pre-incubation; read-out: I50
measured endpoint: pIC50
Answers are plain numbers, as −log10 of the molar value.

Example cases with answers are listed next.
O=C(CCOc1ccc2ccccc2c1)NO [3(2'-naphthoxy)-n-propylhydroxamic acid, 3(2'-naphthoxy)-propylhydroxamic acid]    5.15
CCCC(Oc1ccc2ccccc2c1)C(=O)NO (centres unmarked)    4.62
CCCCC(Oc1ccc2ccccc2c1)C(=O)NO (centres unmarked)    4.72

List the reported pIC50 of each compound below.
1. CCCCCCCCC(Oc1ccc2ccccc2c1)C(=O)NO (centres unmarked)
2. O=C(NO)c1c(O)ccc2ccccc12 [2-hydroxy-1-naphthylhydroxanic acid, 2-hydroxy-1-naphthylhydroxamic acid]

Result:
1: 5.64; 2: 5.80

---

# assayed system: lipoxygenase from rabbit reticulocytes (Oryctolagus cuniculus, UniProt P12530)
# Construct: The lipoxygenase from rabbit reticulocytes is obtained in electrophoretically and immunologically pure form; from tissue; host or cells: rabbit reticulocytes
# Sequence (P12530 1-663): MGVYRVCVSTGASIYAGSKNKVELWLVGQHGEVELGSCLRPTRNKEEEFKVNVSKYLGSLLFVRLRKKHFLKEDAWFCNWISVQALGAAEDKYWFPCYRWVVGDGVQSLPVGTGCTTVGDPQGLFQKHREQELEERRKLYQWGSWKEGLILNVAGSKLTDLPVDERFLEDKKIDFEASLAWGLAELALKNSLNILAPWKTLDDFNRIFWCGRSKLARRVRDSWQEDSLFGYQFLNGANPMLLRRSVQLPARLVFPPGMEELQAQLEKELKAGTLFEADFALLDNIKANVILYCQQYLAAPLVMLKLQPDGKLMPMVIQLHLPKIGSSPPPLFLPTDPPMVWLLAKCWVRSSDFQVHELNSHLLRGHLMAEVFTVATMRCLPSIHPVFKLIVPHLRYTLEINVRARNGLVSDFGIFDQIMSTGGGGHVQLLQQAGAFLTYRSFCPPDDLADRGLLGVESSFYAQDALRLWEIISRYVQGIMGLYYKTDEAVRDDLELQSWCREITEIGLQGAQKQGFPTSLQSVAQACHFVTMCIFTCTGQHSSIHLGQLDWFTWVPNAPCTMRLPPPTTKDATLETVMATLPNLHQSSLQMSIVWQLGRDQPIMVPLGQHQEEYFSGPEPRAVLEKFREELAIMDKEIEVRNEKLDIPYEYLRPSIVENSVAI
# assay details: Inhibition of the activity of lipoxygenase from rabbit reticulocytes (oxygen consumption, Clark electrode)
# Assay type: biochemical
# condition set: 25° C., pH 7.4, 0.53 mM linoleic acid, 15 min pre-incubation; read-out: I84
measured endpoint: IC84 (µM)
Numbers only, in µM.

Give IC84 for all compounds that follow.
1. CC(Oc1ccc2ccccc2c1)C(=O)NO (stereo not shown)
2. O=C(COc1ccc2ccccc2c1)NO [2(2'-naphthoxy)-acethydroxamic acid]
3. CCC(Oc1cccc2ccccc12)C(=O)NO (stereo not shown)
4. O=C(NO)c1ccc2ccccc2c1O [1-hydroxy-2-naphthylhydroxamic acid]

Result:
1. 120
2. 9
3. 130
4. 500

// for each compound below, give its IC84
1. O=C(CCOc1ccc2ccccc2c1)NO [3(2'-naphthoxy)-n-propylhydroxamic acid, 3(2'-naphthoxy)-propylhydroxamic acid]
2. O=C(CCCOc1ccc2ccccc2c1)NO [4(2'-naphthoxy)-n-butyl-hydroxamic acid, 4(2'-naphthoxy)-butylhydroxamic acid]
3. O=[N+]([O-])c1ccc(O)c(O)c1 [4-nitrocatechol, reference compound]

Result:
[15, 7.5, 16]

Batch: IC84 for all items listed.
1. O=C(CCCCOc1ccc2ccccc2c1)NO [5(2'-naphthoxy)valerylhydroxamic acid, 5(2'-naphthoxy)-valerylhydroxamic acid]
2. O=C(COc1cccc2ccccc12)NO [2(1'-naphthoxy)-acethydroxamic acid]
3. O=C(CCCCCCCOc1ccc2ccccc2c1)NO [8(2'-naphthoxy)-octylhydroxamic acid]
4. CCCCCCCCCC(Oc1ccc2ccccc2c1)C(=O)NO (stereo not shown)
5. O=C(NO)c1c(O)ccc2ccccc12 [2-hydroxy-1-naphthylhydroxanic acid, 2-hydroxy-1-naphthylhydroxamic acid]

Result:
6.4
60
4.6
4.8
5.2

Q: Given the compound CCCCCCCCC(Oc1ccc2ccccc2c1)C(=O)NO (stereo not shown) , what is its reported IC84?
Result: 7

---

# assayed system: lipoxygenase from rabbit reticulocytes (Oryctolagus cuniculus)
# Construct: The lipoxygenase from rabbit reticulocytes is obtained in electrophoretically and immunologically pure form; from tissue; host or cells: rabbit reticulocytes
# assay details: Inhibition of the activity of lipoxygenase from rabbit reticulocytes (oxygen consumption, Clark electrode)
# Assay type: biochemical
# Text: The lipoxygenase from rabbit reticulocytes was obtained in electrophoretically and immunologically pure form according to a technique known from the literature (S. M. Rapoport et al. Methods in Enzymology 71, 430 (1981)). […] Through variation of the substance concentrations, the titration curves of the inhibition and therefrom the inhibition concentrations (I-value) of the compounds can be determined. […]
Would you mind telling me the reported pIC50 of each entry?
Numbers only, as −log10 of the molar value.

COc1ccc(O)c(C(C)(C)C)c1 [3-tert.-butyl-4-hydroxy-anisol, reference compound]    3.80

Q: I am curious: what pIC50 value has been reported for O=C(NO)c1ccccc1O [salicylhydroxamic acid] ?
Result: 4.70

---

Assignment: determine reported pIC50 for the given compounds.
# assayed system: lipoxygenase from rabbit reticulocytes (Oryctolagus cuniculus, UniProt P12530)
# Construct: The lipoxygenase from rabbit reticulocytes is obtained in electrophoretically and immunologically pure form; from tissue; host or cells: rabbit reticulocytes
# assay details: Inhibition of the activity of lipoxygenase from rabbit reticulocytes (oxygen consumption, Clark electrode)
# Format: biochemical
# condition set: 25° C., pH 7.4, 0.53 mM linoleic acid, 15 min pre-incubation; read-out: I50
Numbers only, as −log10 of the molar value.

CCC(Oc1cccc2ccccc12)C(=O)NO (centres unmarked)    4.38
CCC(Oc1ccc2ccccc2c1)C(=O)NO (centres unmarked)    4.49
O=C(COc1ccc2ccccc2c1)NO [2(2'-naphthoxy)-acethydroxamic acid]    5.60
O=C(CCCCCCCOc1ccc2ccccc2c1)NO [8(2'-naphthoxy)-octylhydroxamic acid]    5.68

Note: attention shifts to another entry.
Q: Value lookup for pIC50; key = O=[N+]([O-])c1ccc(O)c(O)c1 [4-nitrocatechol, reference compound]
Result: 5.34
